// reported ELISA signal at phage dilution factor 9 per item
- system_name: T1, TRBV5-1 antigenic peptide No. 1 (…) conjugated to BSA (human)
- T1 sequence (peptide): TQTPRYLIKTRGQQ
- assay_notes: ELISA; confirmatory monoclonal phage ELISA; antigens peptide alone, peptide-BSA, peptide-biotin; controls PBS, 10% BSA-PBS, PBS-streptavidin; phage dilution factors 1, 3, 9
quantity_kind: ELISA signal at phage dilution factor 9

- binder: "scFv clone A2 (scFv, V domains shown, tested as phage clone in the confirmatory monoclonal ELISA; source: phage display clone from the human naive scFv library LiAb-SFMAX (Proteogenix), amplified in E. coli TG1) VH: QVQLQQSGPGLVKPSQTLSLTCAISGDSVSSNSAAWNWIRQSPSRGLEWLGRTYYRSKWYNDYAVSVKSRITINPDTSKNQFSLQLNSVTPEDTAVYYCARDQAAAEVYFDYWGQGTLVTVSS VL: NFMLTQPHSVSESPGKTVTISCTRSSGSIASNYLQWYQQRPGSAPTTVIYEDNQRPSGVPDRFSGSIDSSSNSASLTISGLKTEDEADYYCQSYDNRNHWVFGGGTQLTVL"
  value_observed: 3.84
- binder: "scFv clone D5 (scFv, V domains shown, tested as phage clone in the confirmatory monoclonal ELISA; source: phage display clone from the human naive scFv library LiAb-SFMAX (Proteogenix), amplified in E. coli TG1) VH: QVQLVQSGAEVKKPGASVKVSCKPSGYYFNGYDITWVRQAIGQGLEWMGWMNPNSGNRDYAHQFQGRLTMTWDTSLSTAYLELNNLQSDDTAIYYCARERVSSGLDFWGQGTLVTVSS VL: SYELTQPPSVSVSPGQTARITCSGDALPKQYAYWYQQKPGQAPVLLIYKDSERPSGIPERFSGSSSGTTVTLTISGVQAEDEADYYCQSADSSGTYVVFGGGTQLTVL"
  value_observed: 3.5
- binder: "scFv clone C10 (scFv, V domains shown, tested as phage clone in the confirmatory monoclonal ELISA; source: phage display clone from the human naive scFv library LiAb-SFMAX (Proteogenix), amplified in E. coli TG1) VH: EVQLVQSGAEVKKPGSSVKVSCKASGGTFSSYAISWVRQAPGQGLEWMGGIIPIFGTANYAQKFQGRVTITADKSTSTAYMELSSLRSEDTAVYYCAREPLRGYSGYDFYYYGMDVWGQGTMVTVSS VL: SYELTQPHSVSGSPGETVTISCAGSGGSIASNYVQWYQQRPGSAPTTLIYEDKVRPSGVPDRFSGSIDYSSDSASLTISGLKTEDEADYYCQSADSTSTYVFGTGTKVTVL"
  value_observed: 3.04
- binder: "scFv clone A12 (scFv, V domains shown, tested as phage clone in the confirmatory monoclonal ELISA; lead scFv from which the r-hIgG1 mAb was made; also called lead scFv; source: phage display clone from the human naive scFv library LiAb-SFMAX (Proteogenix), amplified in …) VH: QVQLQQWGAGLLKPSETLSLTCAVYGGSFSGYYWSWIRQPPGKGLEWIGEINHSGSTNYNPSLKSRVTISVDTSKNQFSLKLSSVTAADTAVYYCARWDLDYWGQGTLVTVSS VL: EIVLTQSPLSLPVTLGQSASISCRSSQSLVHSDGNTYLNWFQQRPGQSPRRLIYQVSKRDSGVPDRFSGSGSGTDFTLRISRVEAEDVGFYYCMQGTHWPPITFGQGTRLEIK"
  value_observed: 0.78
- binder: "scFv clone A5 (scFv, V domains shown, as printed identical to the VH of A2; tested as phage clone in the confirmatory monoclonal ELISA; source: phage display clone from the human naive scFv library LiAb-SFMAX (Proteogenix), amplified in E. coli TG1) VH: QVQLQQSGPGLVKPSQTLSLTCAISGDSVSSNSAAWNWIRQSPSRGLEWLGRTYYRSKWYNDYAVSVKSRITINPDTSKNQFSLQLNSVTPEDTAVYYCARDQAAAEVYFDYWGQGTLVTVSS VL: NFMLTQPHSVSESPGKTVTISCTRSSGSIASNYVQWYQQRPGSSPTTVIYEDNQRPSGVPDRFSGSIDSSSNSASLTISGLKTEDEADYYCQSYDSSNHWVFGGGTKVTVL"
  value_observed: 3.74
- binder: "scFv clone A8 (scFv, V domains shown, tested as phage clone in the confirmatory monoclonal ELISA; source: phage display clone from the human naive scFv library LiAb-SFMAX (Proteogenix), amplified in E. coli TG1) VH: QVQLVQSGPEMKKAGASVRVSCKGSGYTFSSFDINWVRQVPGQGLEWMGWMNPDTGNTGLAQKFQGRVTMTRDTSIRTAYMELRSLRSDDTAVYYCARDAPRNGRGMDVWGQGTMVTVSS VL: SYELTQPPSVSVSPGQTARITCSGDALPKQYAYWYQQKPGQAPVLVIYQDTKRPSGIPERFSGSSSGTTVTLTISGVQAEDEADYYCQSADSSGTYPVFGGGTKLTVL"
  value_observed: 4.14
